- System: TK-10 renal
- protocol_description: NCI-60 one-dose screen, 48 h (100 = growth as untreated, 0 = no growth, -100 = all killed)
- condition_description: 10 µM
Compounds without any hit were thinned out: in the full panel of roughly 83,000, 20% have a hit. The source made the active and inactive calls. How the source made its calls: active means growth percent below 10; inactive means the rest.

molecule	growth
O=C(N/N=C/c1ccc(Cl)cc1)c1ccc(Cc2n[nH]c(=O)c3cccnc23)cc1	107% (inactive)
CN(C)CCN(Cc1ccccc1)c1ccc2ccccc2n1	93.1% (inactive)
O=C1/C(=C/c2ccc3c(c2)OCO3)SC(=S)N1C1c2ccccc2Oc2ccccc21	101% (inactive)
CCC(C)[C@H](NC(C)=O)C(=O)N[C@@H](CCCNC(=N)N)C(=O)N[C@@H](CCCCN)C(=O)N[C@@H](CC1CCC(O)CC1)C(=O)NC(C(=O)N[C@@H](CCSC)C(=O)N[C@@H](CCCNC(=N)N)C(=O)N[C@@]1(C)CCC/C=C\CCC[C@@](C)(C(=O)NC(C(=O)N[C@@H](CCC(=O)O)C(=O)N[C@@H](CC(C)C)C(=O)N[C@H](C(=O)N[C@@H](CCC(=O)O)C(N)=O)C(C)C)[C@@H](C)O)NC(=O)[C@H](CCC(N)=O)NC(=O)[C@H](CC(C)C)NC(=O)[C@H](CC(C)C)NC1=O)[C@@H](C)O (stereo partly drawn)	96.4% (inactive)
CC(C)(O)CCl	111% (inactive)
C=C(C)[C@@H]1CC[C@]2(COCCC#N)CC[C@]3(C)[C@H](CC[C@@H]4[C@@]5(C)Cc6c([nH]c7ccccc67)C(C)(C)[C@@H]5CC[C@]43C)[C@@H]12	100% (inactive)
O=C(c1ccccc1)N(C(=O)c1ccccc1)N1CCCC1	101% (inactive)
CC(C)(C)c1ccc(S(=O)(=O)Oc2ccc(NC(=O)C3CCCCC3)cc2)cc1	57.8% (inactive)
COc1ccc(C(=O)CC(CC(=O)c2ccc(OC)cc2)c2c(C)nn(-c3ccccc3)c2Cl)cc1	103% (inactive)
CC(C)c1cc(N=O)cc(C(C)C)c1O	115% (inactive)
CCN(CC)CCOc1cccc2c1C(=O)c1cccc(OCCN(CC)CC)c1C2=O	47.4% (inactive)
COc1cc(/C=C/c2cc(/C=C/c3ccc(O)c(OC)c3)n(C(=O)Nc3ccccc3Cl)n2)ccc1O	16.1% (inactive)
N#CC1=C(N)Oc2cc(N)ccc2C1c1cccnc1 (stereo not drawn)	119% (inactive)
CCCCCC(=O)O[C@]1(C(C)=O)CCC2C3CCC4=CC(=O)CC[C@]4(C)C3CC[C@@]21C (stereo partly drawn)	40.4% (inactive)
Cc1[nH]c2ccccc2c1/C=N/Nc1ncnc2sc3c(c12)CCN(CC(=O)OC(C)(C)C)C3	101% (inactive)
O=C(CCCCC(=O)Oc1c(Cl)cc(Cl)cc1[N+](=O)[O-])Oc1c(Cl)cc(Cl)cc1[N+](=O)[O-]	91.3% (inactive)
COc1cc(-c2nn(-c3cccc(NC(=O)CN4CCOCC4)c3)cc2-c2cccnc2)ccc1Cl	125% (inactive)
Nc1nc(-c2cccnc2)nc2c1sc(=S)n2-c1ccccc1	93.5% (inactive)

====

- System: OVCAR-5 ovarian
- protocol_description: NCI-60 one-dose screen, 48 h (100 = growth as untreated, 0 = no growth, -100 = all killed)
- condition_description: 10 µM
The panel holds about 83,000 compounds, 20% with a hit somewhere; the sample as a whole holds those more often. Calls of active or inactive are those of the source. How the source made its calls: active means growth percent below 10; inactive means the rest.
assay_metric: growth

mol	target_desc	reported_result
CC(C)CCN(CCC(C)C)CC(=O)Nc1ccc(S(=O)(=O)c2ccc(NC(=O)CN(CCC(C)C)CCC(C)C)cc2)cc1	OVCAR-5 ovarian	54.3% (inactive)
O=C(O)c1cc([N+](=O)[O-])ccc1Oc1ccccc1	OVCAR-5 ovarian	101% (inactive)
CC(C)(C)OC(=O)CN1CCc2c(sc3ncnc(N/N=C/c4ccccc4Br)c23)C1	OVCAR-5 ovarian	92.3% (inactive)
O=C(CCl)Oc1ccc(OC(=O)CCl)cc1	OVCAR-5 ovarian	111% (inactive)
Cc1n[nH]c(C)c1N=Nc1cccc2c1C(=O)c1ccccc1C2=O	OVCAR-5 ovarian	91.8% (inactive)
CC(=O)N[C@H](C(=O)N[C@@H](CCCNC(=N)N)C(=O)N[C@@H](CCCCN)C(=O)N[C@@H](CCCNC(=N)N)C(=O)N[C@]1(C)CCCCCC/C=C\CCC[C@@](C)(C(=O)N[C@@H](CCCNC(=N)N)C(=O)N[C@@H](CCC(=O)O)C(=O)N[C@@H](CC(C)C)C(=O)N[C@H](C(=O)N[C@@H](CCC(=O)O)C(N)=O)C(C)C)NC(=O)[C@H](CCC(N)=O)NC(=O)[C@H](CC(C)C)NC(=O)[C@H](CC(C)C)NC(=O)[C@H](CCCNC(=N)N)NC(=O)[C@H](CCCNC(=N)N)NC(=O)[C@H](CC(C)C)NC1=O)C(C)C	OVCAR-5 ovarian	38.3% (inactive)

====

- Test system: IGROV1 ovarian
- protocol_description: NCI-60 one-dose screen, 48 h (100 = growth as untreated, 0 = no growth, -100 = all killed)
- condition_description: 10 µM
This is part of a sample that, as a whole, favours compounds with a hit. Of some 83,000 tested, about 20% had one in any assay.

compound	target_desc	output_unit	growth
CNS(=O)(=O)Oc1ccc(-c2sc3cc(OS(=O)(=O)NC)ccc3c2C(=O)c2ccc(OCCN3CCCCC3)cc2)cc1	IGROV1 ovarian	%	85.6
O=C(CSc1nccc(Nc2cccc3ccccc23)n1)c1ccc(Cl)cc1	IGROV1 ovarian	%	69
CCCCCCCCCCOC(c1ccccc1)c1ccccc1	IGROV1 ovarian	%	73.7
N#Cc1c(-c2ccc(Cl)cc2)csc1NC(=O)Nc1ccc(Cl)c(C(F)(F)F)c1	IGROV1 ovarian	%	22.1
CC(C)(C)OC(=O)CC(S(=O)(=O)c1ccccc1)S(=O)(=O)c1ccccc1	IGROV1 ovarian	%	114
CCC(C)[C@H](NC(C)=O)C(=O)N[C@@H](CCCNC(=N)N)C(=O)N[C@@H](CCCCN)C(=O)N[C@@H](CC1CCC(O)CC1)C(=O)NC(C(=O)N[C@@H](CCSC)C(=O)N[C@@H](CCCNC(=N)N)C(=O)N[C@@]1(C)CCC/C=C\CCC[C@@](C)(C(=O)NC(C(=O)N[C@@H](CCC(=O)O)C(=O)N[C@@H](CC(C)C)C(=O)N[C@H](C(=O)N[C@@H](CCC(=O)O)C(N)=O)C(C)C)[C@@H](C)O)NC(=O)[C@H](CCC(N)=O)NC(=O)[C@H](CC(C)C)NC(=O)[C@H](CC(C)C)NC1=O)[C@@H](C)O (some centres undefined)	IGROV1 ovarian	%	100
Nc1ncc(-c2cnn(C3CCNCC3)c2)cc1-c1nc2ccccc2o1	IGROV1 ovarian	%	-14.5
O=C1CSC(=S)N1/N=C/c1ccc(Cl)s1	IGROV1 ovarian	%	100
CCOC(=O)CSc1nc(-c2cc(OC)ccc2OC)cc(-c2ccc(OC)cc2)c1C#N	IGROV1 ovarian	%	55.4
CC1(C)N=C(N)N=C(N)N1c1cccc(C#N)c1	IGROV1 ovarian	%	42.6
COc1cc(C(=O)n2nc(-c3cc(OC)c(OC)c(OC)c3)nc2N)cc(OC)c1OC	IGROV1 ovarian	%	105
C[C@]12CCC3c4ccc(O)cc4C[C@@H](CCCCCCCCCS(=O)CCCC(F)(F)C(F)(F)F)C3C1CC[C@@H]2O (some centres undefined)	IGROV1 ovarian	%	92.3
COc1cc(-c2nn(-c3ccc(NC(=O)NCCNS(=O)(=O)c4ccc(F)cc4)cc3)cc2-c2ccncc2)ccc1Cl	IGROV1 ovarian	%	27.3
COc1cc(C2CC(c3ccccc3)=NN2C(C)=O)cc(OC)c1OC (centres undefined)	IGROV1 ovarian	%	24.6
O=C1/C(=C/c2ccc([N+](=O)[O-])s2)Oc2cc(Cl)ccc21	IGROV1 ovarian	%	-60.9
COc1ccc(C(=O)N2C=Cc3ccccc3C2C#N)cc1 (centres undefined)	IGROV1 ovarian	%	114
CC[C@H]1OC(=O)[C@H](C)[C@@H](O[C@H]2C[C@@](C)(OC)[C@@H](O)[C@H](C)O2)[C@H](C)[C@@H](O[C@@H]2O[C@H](C)C[C@H](N(C)C)[C@H]2O)[C@](C)(OC)C/C(C)=C2/O[C@@]1(C)C=C2C	IGROV1 ovarian	%	58.1
c1ccc(/C(=N\Nc2ccc3ccccc3n2)c2ccccn2)cc1	IGROV1 ovarian	%	2.49
O=C(CCC(C(=O)c1ccccc1)c1ccccc1)c1ccccc1 (centres undefined)	IGROV1 ovarian	%	79.3
Cc1ccc(S(=O)(=O)N(C)CCCCCC(=O)O)cc1	IGROV1 ovarian	%	99.4
COc1ccc(C2CC(c3cc(OC)c(OC)c(OC)c3)=NN2)cc1 (centres undefined)	IGROV1 ovarian	%	62.6
O=C1/C=C/[C@@H](O)[C@@H]2C[C@@H](O)C[C@H]2/C=C/CCC[C@H](C(F)(F)F)O1	IGROV1 ovarian	%	19.4
CC[C@@H](C(=O)[C@H](C)[C@H](O)[C@@H](C)[C@H]1O[C@H]([C@@H](CC)C(=O)N(CC)CC)CC[C@H]1C)C1O[C@]2(C=C[C@@H](O)[C@]3(CC[C@@](C)([C@H]4CC[C@](O)(CC)[C@H](C)O4)O3)O2)[C@H](C)C[C@@H]1C (some centres undefined)	IGROV1 ovarian	%	19.8
C=CCN(CC=C)C(=O)[C@H](CC)[C@@H]1CC[C@@H](C)[C@@H]([C@H](C)[C@@H](O)[C@@H](C)C(=O)[C@H](CC)C2O[C@]3(C=C[C@@H](O)[C@]4(CC[C@@](C)([C@H]5CC[C@](O)(CC)[C@H](C)O5)O4)O3)[C@H](C)C[C@@H]2C)O1 (some centres undefined)	IGROV1 ovarian	%	10.7
CC[C@@H]1NC(=O)[C@H]([C@H](O)[C@H](C)C/C=C/c2ccc(CN3C(=O)CCCC3=O)cc2)N(C)C(=O)[C@H](C(C)C)N(C)C(=O)[C@H](CC(C)C)N(C)C(=O)[C@H](CC(C)C)N(C)C(=O)[C@@H](C)NC(=O)[C@H](C)NC(=O)[C@H](CC(C)C)N(C)C(=O)[C@H](C(C)C)NC(=O)[C@H](CC(C)C)N(C)C(=O)CN(C)C1=O	IGROV1 ovarian	%	58.2
CCc1ccc(-c2ccc(-n3nc(C)c4c(N)nc(Cc5ccccc5)nc43)cc2)cc1	IGROV1 ovarian	%	68
COc1cc2cc(Oc3ccc(NC(=O)Nc4ccc(C(F)(F)F)cc4)cc3)c(C)nc2cc1OC	IGROV1 ovarian	%	71.9
COc1cc(-c2nn(-c3cccc(NC(=O)CCNc4ccc(N5CCOCC5)cc4)c3)cc2-c2ccncc2)ccc1Cl	IGROV1 ovarian	%	27.3
COc1cc2c3c(n([C@@H]4CCOC4)c(=O)c2cc1OC)-c1cc2c(cc1C3=O)OCO2	IGROV1 ovarian	%	67.8
